target: MET; assay: pooled miR-30 sensor sort-seq; sequence = guide strand; conditions: shRNA; further: reference of the scale not given here
reported.endpoint: sensor-assay potency score (higher = more potent)

Answered cases to consult:
IN: I have this sequence here, TTTCTTGCCATCATTGTCCAAC , and I need its recorded sensor-assay potency score (higher = more potent).
OUT: -0.767

IN: I have this sequence here, TTCTGTGAGAATACACTCCAGA , and I need its recorded sensor-assay potency score (higher = more potent).
OUT: -0.115

IN: I have this sequence here, TTGATATTGAGACAACACCAGC , and I need its recorded sensor-assay potency score (higher = more potent).
OUT: -1.2

IN: I have this sequence here, TTGCTTTGTGCGAACACCCCGA , and I need its recorded sensor-assay potency score (higher = more potent).
OUT: 0.0698

IN: I have this sequence here, TTCATTGAAATGCACAATCAGG , and I need its recorded sensor-assay potency score (higher = more potent).
OUT: -0.957

IN: I have this sequence here, TATTCTTGTGTGAAAAGTCTGA , and I need its recorded sensor-assay potency score (higher = more potent).
OUT: 0.132

---
IN: I have this sequence here, TATATTAAACACTTCCTTCTTT , and I need its recorded sensor-assay potency score (higher = more potent).
OUT: 0.147

IN: I have this sequence here, TTAAACACTTCCTTCTTTGTGG , and I need its recorded sensor-assay potency score (higher = more potent).
OUT: 0.061
